In this section, each of the compounds is paired with its reported pIC50.
test system: SiHa; test: cells; assay type: functional, cell-based; settings: Homo sapiens;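 further: Viability-based readout of growth inhibition in SiHa cells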
Description: SANGER: Inhibition of human SiHa cell growth in a cell viability assay.
pIC50: −log10 of the molar value.

Solved entries:
>>> readout_value("CC(=O)c1c(C)c2cnc(Nc3ccc(N4CCNCC4)cn3)nc2n(C2CCCC2)c1=O [PALBOCICLIB]")
"< 5.40"
>>> readout_value("N#C/C(=C1/Nc2ccccc2S1)c1ccnc(NCCc2cccnc2)n1")
"< 5.10"
>>> readout_value("O=c1cc(N2CCOCC2)oc2c(-c3cccc4c3sc3ccccc34)cccc12")
"< 5.70"

// recorded pIC50 for C/C=C(/C)C(=O)O[C@H]1C(C)=C2[C@H]([C@@H]1OC(=O)CCCCCCC)[C@@](C)(OC(C)=O)C[C@H](OC(=O)CCC)[C@@]1(O)[C@H]2OC(=O)[C@@]1(C)O [THAPSIGARGIN] : < 6.29

The recorded pIC50 for C[C@]1(c2nc3c(C(N)=O)cccc3[nH]2)CCCN1 [VELIPARIB] is < 5.30

According to the records, this compound O=c1[nH]c2ccccc2n1C1CCN(Cc2ccc(-c3nc4cc5[nH]cnc5cc4nc3-c3ccccc3)cc2)CC1 displays pIC50 of < 5.59

compound CCNC(=O)c1noc(-c2cc(C(C)C)c(O)cc2O)c1-c1ccc(CN2CCOCC2)cc1 [LUMINESPIB] , pIC50 observed: < 6.59

response.value for NC(=O)c1ncn([C@@H]2O[C@H](COP(=O)(O)O)[C@@H](O)[C@H]2O)c1N (field: pIC50) = < 2.70

For CC(C)=CC[C@@H](O)C1=CC(=O)c2c(O)ccc(O)c2C1=O [SHIKONIN] the compound record lists pIC50 as < 4.80

Measured pIC50 of Fc1cc(-c2cc[nH]/c(=N/c3ccc(-n4cnc(N5CCOCC5)n4)cc3)n2)cc(N2CCOCC2)c1 : 5.96

// data source = ChEMBL document CHEMBL1201861
